Numbers sourced from patent US20200291018A1.

STUDY_SYSTEM: FLT3 (Homo sapiens, UniProt P36888)
Sequence (P36888 27-993): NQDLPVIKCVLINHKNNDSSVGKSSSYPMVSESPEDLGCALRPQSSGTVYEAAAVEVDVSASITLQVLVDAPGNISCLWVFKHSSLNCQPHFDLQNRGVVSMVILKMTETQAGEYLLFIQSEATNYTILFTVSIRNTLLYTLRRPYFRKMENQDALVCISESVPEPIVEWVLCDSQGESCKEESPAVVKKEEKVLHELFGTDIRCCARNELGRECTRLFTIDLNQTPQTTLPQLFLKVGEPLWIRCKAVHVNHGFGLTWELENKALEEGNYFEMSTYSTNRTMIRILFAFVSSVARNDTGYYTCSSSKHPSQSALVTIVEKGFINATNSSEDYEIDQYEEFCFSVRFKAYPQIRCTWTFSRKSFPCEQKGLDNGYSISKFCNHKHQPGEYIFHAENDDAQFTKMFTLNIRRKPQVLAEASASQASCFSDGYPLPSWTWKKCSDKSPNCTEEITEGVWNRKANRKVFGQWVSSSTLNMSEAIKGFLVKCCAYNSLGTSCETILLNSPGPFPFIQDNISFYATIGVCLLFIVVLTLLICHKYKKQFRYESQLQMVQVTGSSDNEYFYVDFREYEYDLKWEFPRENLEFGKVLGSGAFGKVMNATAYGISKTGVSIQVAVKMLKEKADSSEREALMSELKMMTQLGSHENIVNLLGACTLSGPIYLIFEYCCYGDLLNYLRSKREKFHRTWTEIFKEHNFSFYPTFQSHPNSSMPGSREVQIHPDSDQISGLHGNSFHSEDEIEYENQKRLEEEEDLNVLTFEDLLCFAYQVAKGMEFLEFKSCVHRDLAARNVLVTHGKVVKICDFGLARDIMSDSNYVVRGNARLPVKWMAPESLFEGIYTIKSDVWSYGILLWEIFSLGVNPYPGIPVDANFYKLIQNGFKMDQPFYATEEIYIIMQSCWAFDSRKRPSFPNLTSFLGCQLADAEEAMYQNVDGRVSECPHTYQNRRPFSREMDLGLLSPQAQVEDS
IC50: recorded values

(Q) Query IC50 on FLT3 (Homo sapiens, UniProt P36888) for COC[C@H](C)Nc1ncc2c(OC3CCOCC3)ncc(-c3cccc(C(N)=O)c3)c2n1 [Compound 325]
(A) 1000 to 10000 nM

Next:
(Q) Query IC50 on FLT3 (Homo sapiens, UniProt P36888) for C[C@@H](CC(F)(F)F)Nc1ncc2c(O[C@@H]3C[C@H]4CC[C@@H](C3)N4[C@@H]3CCOC3)ncc([C@H]3CC[C@H](O)CC3)c2n1 [Compound 415]
(A) 100 to 1000 nM

(Q) Query IC50 on FLT3 (Homo sapiens, UniProt P36888) for CNS(=O)(=O)N1CCC(c2cnc(OC3CCOCC3)c3cnc(N[C@@H](C)COC)nc23)CC1 [Compound 341]
(A) 1000 to 10000 nM

###

STUDY_SYSTEM: TYRO3 (Homo sapiens)
Sequence (Q06418 41-890): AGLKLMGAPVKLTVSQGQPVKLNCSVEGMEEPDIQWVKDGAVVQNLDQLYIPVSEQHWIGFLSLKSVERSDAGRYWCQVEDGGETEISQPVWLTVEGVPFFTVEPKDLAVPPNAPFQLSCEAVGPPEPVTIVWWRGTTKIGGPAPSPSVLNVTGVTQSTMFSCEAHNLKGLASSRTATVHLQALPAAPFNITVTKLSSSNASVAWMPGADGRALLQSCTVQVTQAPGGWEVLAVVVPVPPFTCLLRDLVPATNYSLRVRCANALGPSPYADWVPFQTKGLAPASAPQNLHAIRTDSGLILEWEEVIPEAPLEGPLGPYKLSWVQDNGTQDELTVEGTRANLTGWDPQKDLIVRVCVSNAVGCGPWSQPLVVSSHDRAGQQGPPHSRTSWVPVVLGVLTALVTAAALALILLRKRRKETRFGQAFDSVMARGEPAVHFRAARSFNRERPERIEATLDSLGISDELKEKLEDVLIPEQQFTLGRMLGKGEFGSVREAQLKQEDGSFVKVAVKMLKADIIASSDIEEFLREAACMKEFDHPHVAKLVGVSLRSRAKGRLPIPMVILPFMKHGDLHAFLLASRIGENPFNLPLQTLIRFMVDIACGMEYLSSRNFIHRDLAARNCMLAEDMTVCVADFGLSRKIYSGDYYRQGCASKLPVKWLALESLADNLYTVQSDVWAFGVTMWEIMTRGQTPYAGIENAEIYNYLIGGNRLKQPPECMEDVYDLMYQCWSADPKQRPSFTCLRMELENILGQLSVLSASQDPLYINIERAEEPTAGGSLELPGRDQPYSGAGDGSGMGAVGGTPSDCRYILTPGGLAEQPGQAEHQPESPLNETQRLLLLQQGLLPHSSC
IC50: recorded values

# annotated cases, reported IC50 shown
(Q) State the recorded IC50 for this entry: CC[C@H](C)Nc1ncc2c(OC3CCN(c4ncccn4)CC3)ncc([C@H]3CC[C@H](O)CC3)c2n1
(A) 100 to 1000 nM

(Q) State the recorded IC50 for this entry: CNC(=O)N[C@H]1CC[C@H](c2cnc(OC3CCOCC3)c3cnc(N[C@@H](C)COC)nc32)CC1
(A) 100 to 1000 nM

(Q) State the recorded IC50 for this entry: O[C@H]1CC[C@H](c2cnc(OC3CCNCC3)c3cnc(NCCC(F)(F)F)nc32)CC1
(A) 100 to 1000 nM

(Q) State the recorded IC50 for this entry: COC[C@H](C)Nc1ncc2c(OC3CCOCC3)ncc(-c3ccc(S(C)(=O)=O)cc3)c2n1
(A) 100 to 1000 nM

(Q) State the recorded IC50 for this entry: O[C@H]1CC[C@H](c2cnc(OC3CCOCC3)c3cnc(NCCC(F)(F)F)nc32)CC1
(A) 100 to 1000 nM

(Q) State the recorded IC50 for this entry: COCCN1C(C)(C)CC(Oc2ncc([C@H]3CC[C@H](O)CC3)c3nc(NC4(C)CC4)ncc23)CC1(C)C
(A) ≤ 100 nM

(Q) State the recorded IC50 for this entry: CCCC(C)Nc1ncc2c(=O)n(C3CCN(C(=O)CN(C)C)CC3)cc([C@H]3CC[C@H](O)CC3)c2n1 (some centres unmarked)
(A) > 10000 nM

(Q) State the recorded IC50 for this entry: Cc1cccc(Nc2ncc3c(OC4CCNCC4)ncc([C@H]4CC[C@H](O)CC4)c3n2)c1
(A) ≤ 100 nM

(Q) State the recorded IC50 for this entry: CC1(C)CC(Nc2ncc3c(OC4CCOCC4)ncc([C@H]4CC[C@H](O)CC4)c3n2)C1
(A) 100 to 1000 nM

(Q) State the recorded IC50 for this entry: COCCN1C(C)(C)CC(Oc2ncc([C@H]3CC[C@H](O)CC3)c3nc(N[C@@H](C)CCO)ncc23)CC1(C)C
(A) ≤ 100 nM

Now, please, on to the next compound.
(Q) State the recorded IC50 for this entry: CCC[C@@H](C)Nc1ncc2c(OC3CCNCC3)ncc([C@H]3CC[C@@H](O)CC3)c2n1
(A) 100 to 1000 nM

###

STUDY_SYSTEM: UniProt:P30530
Sequence (P30530 26-894): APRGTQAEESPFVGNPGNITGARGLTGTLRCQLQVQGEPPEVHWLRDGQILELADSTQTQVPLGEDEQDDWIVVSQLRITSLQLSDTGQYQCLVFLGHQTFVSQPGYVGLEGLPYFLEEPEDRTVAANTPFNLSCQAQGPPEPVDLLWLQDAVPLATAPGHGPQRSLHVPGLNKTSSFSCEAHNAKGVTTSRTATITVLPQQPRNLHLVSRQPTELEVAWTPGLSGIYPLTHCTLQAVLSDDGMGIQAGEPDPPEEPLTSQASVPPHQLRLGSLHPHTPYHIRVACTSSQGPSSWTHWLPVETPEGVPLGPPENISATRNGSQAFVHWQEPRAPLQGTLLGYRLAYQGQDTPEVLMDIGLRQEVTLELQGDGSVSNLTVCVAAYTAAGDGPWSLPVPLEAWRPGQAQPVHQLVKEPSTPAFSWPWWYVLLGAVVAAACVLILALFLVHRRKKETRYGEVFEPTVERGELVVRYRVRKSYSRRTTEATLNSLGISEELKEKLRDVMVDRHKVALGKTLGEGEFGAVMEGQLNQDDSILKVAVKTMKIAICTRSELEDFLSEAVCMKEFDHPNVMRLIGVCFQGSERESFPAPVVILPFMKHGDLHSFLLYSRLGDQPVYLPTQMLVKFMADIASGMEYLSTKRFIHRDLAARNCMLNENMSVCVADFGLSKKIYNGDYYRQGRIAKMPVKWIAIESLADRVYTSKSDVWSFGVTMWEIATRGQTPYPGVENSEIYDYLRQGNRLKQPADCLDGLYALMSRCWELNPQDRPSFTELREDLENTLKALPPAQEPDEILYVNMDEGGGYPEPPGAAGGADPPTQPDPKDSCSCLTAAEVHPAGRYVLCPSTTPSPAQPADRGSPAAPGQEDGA
IC50: recorded values

(Q) Query IC50 on UniProt:P30530 for CC[C@H](C)NC1=NC2C([C@H]3CC[C@H](O)CC3)=CN(C(C)C)C(=O)C2C=N1 (stereo partly drawn)
(A) 100 to 1000 nM

(Q) Query IC50 on UniProt:P30530 for C[C@@H](CC(F)(F)F)Nc1ncc2c(O[C@H]3C[C@@H](O)C3)ncc(-c3ccc(C4(C#N)CC4)cc3)c2n1
(A) 1000 to 10000 nM

Next:
(Q) Query IC50 on UniProt:P30530 for CCOc1ncc([C@H]2CC[C@H](O)CC2)c2nc(N[C@@H](C)COC)ncc12
(A) 100 to 1000 nM

###

pIC50: −log10 of the molar value.
Observed pIC50, system FLT3 (Homo sapiens).

# annotated cases, reported pIC50 shown
(Q) State the recorded pIC50 for this entry: CC[C@H](C)Nc1ncc2c(=O)n(C[C@@H]3COCCN3C)cc([C@H]3CC[C@H](O)CC3)c2n1 [Compound 263]
(A) 5.00 to 6.00

(Q) State the recorded pIC50 for this entry: CC[C@H](C)Nc1ncc2c(OCC(F)(F)F)ncc([C@H]3CC[C@H](O)CC3)c2n1 [Compound 245]
(A) 6.00 to 7.00

(Q) State the recorded pIC50 for this entry: CC[C@H](C)Nc1ncc2c(OC3C[C@H]4CC[C@@H](C3)O4)ncc([C@H]3CC[C@H](O)CC3)c2n1 (stereo partly drawn) [Compound 237]
(A) 5.00 to 6.00

Next:
(Q) State the recorded pIC50 for this entry: C[C@@H](CC(F)(F)F)Nc1ncc2c(OC3CCN(C)CC3)ncc([C@H]3CC[C@H](O)CC3)c2n1 [Compound 352]
(A) 5.00 to 6.00

(Q) State the recorded pIC50 for this entry: CCCC(C)Nc1ncc2c(OC3CC(C)(C)N(C)C(C)(C)C3)ncc([C@H]3CC[C@H](O)CC3)c2n1 (stereo partly drawn) [Compound 161]
(A) 6.00 to 7.00

(Q) State the recorded pIC50 for this entry: CCCC(C)Nc1ncc2c(OC3CCOCC3)ncc([C@H]3CC[C@H](N(C)C)CC3)c2n1 (stereo partly drawn) [Compound 185]
(A) 6.00 to 7.00

(Q) State the recorded pIC50 for this entry: O[C@H]1CC[C@H](c2cnc(OC3CCNCC3)c3cnc(Nc4ccccc4)nc32)CC1 [Compound 210]
(A) ≥ 7.00

(Q) State the recorded pIC50 for this entry: C[C@@H](CC(F)(F)F)Nc1ncc2c(OC3CCN([C@@H]4CCOC4)CC3)ncc([C@H]3CC[C@H](O)CC3)c2n1 [Compound 378]
(A) 5.00 to 6.00

(Q) State the recorded pIC50 for this entry: CC[C@H](C)Nc1ncc2c(O[C@H]3CC[C@H](N)CC3)ncc([C@H]3CC[C@H](O)CC3)c2n1 [Compound 321]
(A) 6.00 to 7.00

(Q) State the recorded pIC50 for this entry: C[C@@H](CC(F)(F)F)Nc1ncc2c(O[C@H]3C[C@@H](O)C3)ncc(-c3ccc(C4(C#N)CC4)cc3)c2n1 [Compound 409]
(A) 6.00 to 7.00

(Q) State the recorded pIC50 for this entry: CNC(=O)N[C@H]1CC[C@H](c2cnc(OC3CCOCC3)c3cnc(N[C@@H](C)COC)nc32)CC1 [Compound 340]
(A) 5.00 to 6.00

(Q) State the recorded pIC50 for this entry: CCCC(C)Nc1ncc2c(OC3CCN(CCOC)CC3)ncc([C@H]3CC[C@H](O)CC3)c2n1 (stereo partly drawn) [Compound 173]
(A) 5.00 to 6.00

(Q) State the recorded pIC50 for this entry: COC[C@H](C)Nc1ncc2c(OC3CCOCC3)ncc(C3CCC(F)(F)CC3)c2n1 [Compound 358]
(A) 5.00 to 6.00

(Q) State the recorded pIC50 for this entry: COC[C@H](C)Nc1ncc2c(O[C@H]3C[C@@H](O)C3)ncc([C@H]3CC[C@@](C)(O)CC3)c2n1 [Compound 427]
(A) < 5.00

(Q) State the recorded pIC50 for this entry: O=C(O)c1ccc(Nc2ncc3c(OC4CCOCC4)ncc([C@H]4CC[C@H](O)CC4)c3n2)cc1 [Compound 397]
(A) ≥ 7.00
